protocol-text: Oral bioavailability in Swiss albino mouse at 12.5 mg/kg by LCMS/MS analysis
Assay type: ADME, organism-based
condition-description: in vivo
test-readout: bioavailability (%)
Quick reminder: number only, in %, skip the unit.

For the compound C[C@]1(COc2ccc(OC(F)(F)F)cc2)Cn2cc([N+](=O)[O-])nc2O1 , what bioavailability is on record?
91

###

Give AUC(0-t) for every item shown.
protocol-text: AUC (last) in Swiss albino mouse at 1 mg/kg, iv by LCMS/MS analysis
Assay type: ADME, organism-based
Set-up: dose 1 mg/kg, time 0 - last, route intravenous
condition-description: in vivo
Quick reminder: number only, in ng·h/mL, skip the unit.

For the compound CC1(COc2ccc(-c3ccc(F)cc3)cc2)Cn2cc([N+](=O)[O-])nc2O1 (racemic) , what AUC(0-t) is on record?
480

For the compound C[C@]1(COc2ccc(OC(F)(F)F)cc2)Cn2cc([N+](=O)[O-])nc2O1 , what AUC(0-t) is on record?
1390

For the compound CC1(COc2ccc(OC(F)(F)F)cc2)Cn2cc([N+](=O)[O-])nc2O1 (racemic) , what AUC(0-t) is on record?
1690

For the compound O=[N+]([O-])c1cn2c(n1)OC(COc1ccc(OC(F)(F)F)cc1)C2 (stereo not given) , what AUC(0-t) is on record?
1140

For the compound CC1(COc2ccc(-c3ccc(OC(F)(F)F)cc3)cc2)Cn2cc([N+](=O)[O-])nc2O1 (stereo not given) , what AUC(0-t) is on record?
2130

###

protocol-text: Metabolic stability in CD1 mouse liver microsomes assessed as parent compound remaining at 1 uM after 30 mins by LC-MS/MS analysis
Type: ADME
condition-description: read-out: Stability
test-readout: remaining at 0.5 h, 1 µM (%)
Quick reminder: number only, in %, skip the unit.

For the molecule CC1(COc2ccc(-c3ccc(F)cc3)cc2)Cn2cc([N+](=O)[O-])nc2O1 (racemic) , what remaining at 0.5 h, 1 µM is on record?
57

###

protocol-text: Oral bioavailability in Swiss albino mouse at 25 mg/kg by LCMS/MS analysis
Type: ADME, organism-based
condition-description: in vivo
test-readout: bioavailability (%)
Quick reminder: number only, in %, skip the unit.

For the compound CC1(COc2ccc(-c3ccc(F)cc3)cc2)Cn2cc([N+](=O)[O-])nc2O1 (racemic) , what bioavailability is on record?
63

For the compound O=[N+]([O-])c1cn2c(n1)OC(COc1ccc(OC(F)(F)F)cc1)C2 (centres undefined) , what bioavailability is on record?
52

For the compound CC1(COc2ccc(OC(F)(F)F)cc2)Cn2cc([N+](=O)[O-])nc2O1 (racemic) , what bioavailability is on record?
79

For the compound CC1(COc2ccc(-c3ccc(OC(F)(F)F)cc3)cc2)Cn2cc([N+](=O)[O-])nc2O1 (centres undefined) , what bioavailability is on record?
18

Data provenance is ChEMBL document CHEMBL3784956.
